Cited source: the supplement of paper PMC10567573

B1: TCAP (parent)
chain: YQRVLPLPIFTPAKMGATKEERED

# Variants of: B1
# experimentDescription: protein stability index of a GFP-peptide fusion (GPS, HEK-293T) (PSI 1-6); higher = more stable;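 further: lentivirally expressed fusions sorted by FACS into six bins by GFP to DsRed ratio, PSI derived from sequencing read proportions per bin multiplied by bin number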
# recordedConditions: c terminus: a fixed tail appended
Use 2 as the dividing line for protein stability index, with the line itself on the 1 side and lower values as -1.

Reference set (4 entries):
mutantName	categoryLabel
Q2H	1
I9R	1
L5H	1
R22N	1

// inclusive: protein stability index at least 2? input: "P12E"
1

// inclusive: protein stability index at least 2? input: "P8G"
-1

// inclusive: protein stability index at least 2? input: "V4W"
1
